Taken from ChEMBL document CHEMBL1201862.

# System: RPMI-8226
# PROTOCOL_NOTES: NCI tumour cell line growth inhibition, 48 h
Calls of active or inactive are those of the source. Rule as the data show it: active = GI50 up to about 1.1 µM and inactive = higher. Where a SMILES comes first, the peptide text is derived from it. The star is where a group is joined. Boc = CC(C)(C)OC(=O)*
Outcomes: 1.0 = active, 0.0 = inactive

• Cc1cc2c(c(=O)o1)C1=S(SC(c3ccccc3)=C1)S2 (stereo not given) = 0.0
• COc1c(-c2nc3ccc(N4CCN(C)CC4)cc3[nH]2)cc(OC)c2[nH]c(CO)nc12 = 0.0
• O=S(=O)(NC(c1ccccc1)(c1cc2ccccc2[nH]1)c1cc2ccccc2n1S(=O)(=O)c1ccccc1)c1ccccc1 (stereo not given) = 0.0
• N#CCc1ccc(/C(C#N)=C2/OC(=N)C(c3ccc(CC#N)cc3)C2=O)cc1 (stereo not given) = 0.0
• Cc1cc(Cc2cc(C)cc(C(C)(C)C)c2O)c(O)c(Cc2cc(C)cc(C(C)(C)C)c2O)c1 = 1.0
• CC(=O)OCC1OC(n2cc(F)c(=O)[nH]c2=O)C(NC(=O)N(CCCl)N=O)C(OC(C)=O)C1OC(C)=O (stereo not given) = 0.0
• COc1ccccc1NS(=O)(=O)c1ccc2ncn(NS(=O)(=O)c3ccc(Cl)cc3)c(=O)c2c1 = 0.0
• C[C@@H]1C[C@H]2OC(=O)[C@@]3(C)CCC[C@@](C)([C@@H]23)[C@@]1(O)CCc1ccoc1 = 0.0
• CN(CCCCN1CCCC1)CCCN(C)C(=O)Cc1ccc(Cl)c(Cl)c1 = 0.0
• CC1=Nc2ccccc2OC(C)=C1/N=N/c1ccc2[nH]c(C)nc2c1 = 0.0
• O=C(c1ccc(Cl)c(Cl)c1)N(C(=O)N1CCN(c2ccccc2)CC1)S(=O)(=O)c1ccccc1 = 0.0
• Cc1nnc(Nc2ccccc2)o1 = 0.0
• CC(=O)Nc1cc2c(s1)CCC1CC(=O)NN=C21 (stereo not given) = 0.0
• COc1ccc(NC/C=C/C(=C/COC(C)=O)OC(C)=O)cc1 = 1.0
• Cc1ccc(C)c(C(=O)CC2OC(O)C(Cl)C2Cl)c1 (stereo not given) = 0.0
• C=CC1(CBr)CCC(C(C)(C)Br)O1 (stereo not given) = 0.0
• O=C(/C=C\c1ccc(Cl)c(Cl)c1)c1ccc(Cl)cc1Cl = 0.0
• COc1c(C)c2c(c(C)c1Cl)Oc1c(C=O)c(O)c(Cl)c(C)c1C(=O)O2 = 0.0
• Cc1ccc(-c2cc(C(F)(F)F)nn2-c2ccc(S(N)(=O)=O)cc2)cc1 = 0.0
• COC(=O)/C(C)=N/N=C(\S)SC = 0.0
• CCCC(=O)Nc1cc(/C=C/C(=O)N2CC(CCl)c3c2cc(OC(C)=O)c2[nH]cc(C)c32)n(C)c1 (stereo not given) = 1.0
• O=C1CCC(=O)c2sccc2N1 = 0.0
• O=c1[c-](-c2ccccc2)[se]c(-c2ccccc2)[n+]1-c1ccccc1 = 0.0
• CCOc1cn(C2CC(O)C(CO)O2)c(=O)[nH]c1=O (stereo not given) = 0.0
• CCOC(=O)c1c(NC(=O)c2ccccc2)c(C#N)c2n1CCCCC2 = 0.0
• C(/Cc1ccc2c(c1)OCO2)=N\N=C1NCCN1 = 0.0
• Cc1cccc2c(N)c3cccc(C(=O)NCCN(C)C)c3nc12 = 1.0
• CC(=O)Oc1cc2c(cc1OC(C)=O)OCC(c1ccccc1)C2 (stereo not given) = 0.0
• CCCc1cn2c(/C=N/NC(=N)N)c(-c3cccc([N+](=O)[O-])c3)nc2s1 = 0.0
• C[C@H](C(=O)C12CC3CC(CC(C3)C1)C2)[C@H](O)c1ccccc1 = 0.0
• COC(=O)C(Cc1c[nH]c2ccccc12)NC(=O)C(Cc1c[nH]c2ccccc12)NC(=O)C(Cc1c[nH]c2ccccc12)NC(=O)C(Cc1c[nH]c2ccccc12)NC(=O)C(Cc1c[nH]c2ccccc12)NC(=O)C(Cc1c[nH]c2ccccc12)NC(=O)C(Cc1c[nH]c2ccccc12)NC(=O)C(Cc1c[nH]c2ccccc12)NC(=O)OC(C)(C)C (stereo not given) (Boc-WWWWWWWW-OMe; configuration not given here) = 0.0
• O=C(/N=c1/[nH]/c(=N/C(=O)c2ccccc2)ss1)c1ccccc1 = 0.0
• c1csc(-c2cscc2-c2ccsc2)c1 = 0.0
• CC(=O)Nc1ccccc1SCCSSCCSc1ccccc1NC(C)=O = 0.0
• CCN(CC)CCC(=O)c1ccc(Cl)c(Cl)c1 = 0.0
• C[C@@H]1S[C@H](c2c(F)cccc2Cl)n2c1nc1ccccc12 = 0.0
• COC(=O)/C=c1/c2ccccc2n2nc3ccccc3c12 = 0.0
• O=C1CCc2cc3c(cc21)C(C(=O)O)CC3 (stereo not given) = 0.0
• COC(=O)c1ccc(NCC2=CC(=O)C=CC2=O)cc1 = 0.0
• Cc1cc(-c2[nH]c(C(=O)O)cc2I)on1 = 0.0
